- Test system: ARPE-19 cells
- measurement notes: Cytotoxicity of lipophenols on ARPE-19 cells (MTT)
- Assay type: cell-based
- cond: 160 μM lipophenol, 24 h, compared to untreated cells (100%)
outcome measure: cell survival (%)
Form entry: value (%) — number only.

- compound: "CCCCC/C=C\\C/C=C\\CCCCCCCC(=O)Oc1c(-c2ccc(O)c(O)c2)oc2cc(OC(C)C)cc(O)c2c1=O [Q-3LA-7OiP]"
  tgt: "ARPE-19 cells"
  cell survival, %: 153
- compound: "CCCCC/C=C\\C/C=C\\CCCCCCCC(=O)Oc1c(-c2ccc(O)c(O)c2)oc2cc(O)cc(O)c2c1=O [Q-3LA]"
  tgt: "ARPE-19 cells"
  cell survival, %: 124

QUERY: Can you look up the measured cell survival of Oc1cc(O)cc(O)c1 [phloroglucinol, reference compound] for me?
RESULT: 61

QUERY: And then CC(C)Oc1cc(O)cc2oc(-c3ccc(O)c(O)c3)c(O)c(=O)c12 [Q-50iP, reference compound] , what is it?
RESULT: 72
